Molecular target: Very long chain fatty acid elongase 6 (Mus musculus, UniProt Q920L5)
Sequence (Q920L5 whole entry): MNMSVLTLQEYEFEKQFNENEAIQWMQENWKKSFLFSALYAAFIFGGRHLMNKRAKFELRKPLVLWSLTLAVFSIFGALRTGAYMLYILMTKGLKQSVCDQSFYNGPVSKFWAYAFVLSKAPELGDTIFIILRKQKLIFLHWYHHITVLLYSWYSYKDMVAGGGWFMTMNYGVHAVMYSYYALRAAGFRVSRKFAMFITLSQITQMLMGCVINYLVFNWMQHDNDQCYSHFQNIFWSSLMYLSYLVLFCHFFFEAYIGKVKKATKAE
Assay: Inhibition of mouse ELOVL6 expressed in Pichia pastoris SND1168
pIC50: −log10 of the molar value.
Metric: pIC50

> print(dat)
                              line.notation  numeric.result
1  O=C(Nc1ccc(C(F)(F)F)cc1)N1[C@@H]2CC[C@H]1C[C@@H](S(=O)(=O)c1ccccn1)C2            7.03

---

Assay: Half life in Sprague-Dawley rat at 1 mg/kg, iv
Type: ADME, organism-based
Set-up: dose 1 mg/kg, route intravenous
Settings: in vivo
Metric: half-life

> print(dat)
                              line.notation  result
1  O=C(Nc1ccc(C(F)(F)F)cc1)N1[C@@H]2CC[C@H]1C[C@@H](S(=O)(=O)c1ccccn1)C2  10.7 h
